Please go through the items and note down their PBM E-score.
Target: Ecm22 (UniProt Q05958)
Sequence: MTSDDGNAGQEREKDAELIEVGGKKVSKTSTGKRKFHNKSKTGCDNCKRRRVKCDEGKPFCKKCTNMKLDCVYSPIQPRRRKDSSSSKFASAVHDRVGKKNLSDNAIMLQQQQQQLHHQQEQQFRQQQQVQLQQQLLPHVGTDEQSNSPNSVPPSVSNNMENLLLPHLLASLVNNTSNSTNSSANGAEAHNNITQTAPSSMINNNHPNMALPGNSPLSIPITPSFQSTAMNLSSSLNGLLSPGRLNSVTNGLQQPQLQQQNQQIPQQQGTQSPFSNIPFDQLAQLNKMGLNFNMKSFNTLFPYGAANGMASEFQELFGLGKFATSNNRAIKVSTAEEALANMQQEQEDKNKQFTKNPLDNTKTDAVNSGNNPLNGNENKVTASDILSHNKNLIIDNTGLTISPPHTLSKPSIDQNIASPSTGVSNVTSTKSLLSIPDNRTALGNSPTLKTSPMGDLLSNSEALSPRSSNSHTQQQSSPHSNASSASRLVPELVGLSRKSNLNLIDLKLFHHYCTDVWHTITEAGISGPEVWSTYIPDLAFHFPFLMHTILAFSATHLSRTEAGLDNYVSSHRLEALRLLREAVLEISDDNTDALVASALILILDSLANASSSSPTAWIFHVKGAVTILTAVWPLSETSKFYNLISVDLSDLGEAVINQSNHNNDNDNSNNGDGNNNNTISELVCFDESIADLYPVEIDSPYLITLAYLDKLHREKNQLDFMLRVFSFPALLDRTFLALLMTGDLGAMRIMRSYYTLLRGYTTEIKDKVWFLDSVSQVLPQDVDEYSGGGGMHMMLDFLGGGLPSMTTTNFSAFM
Test: PBM E-score (8-mer binding enrichment) (E-score (-0.5 to 0.5)); higher = stronger / more preferred TF binding
Conditions: protein concentration: 200 nM; construct: GST-full length
In all, about 33,000 sequences were measured (“E-score (-0.5 to 0.5)”: median about -0.041, highest 2% from about 0.37 on). This is one part of a sample in which the highest values are shown more often than they occur.

| Seq | PBM E-score |
| --- | --- |
| AGTCGTTC | 0.425 |

Would you mind listing PBM E-score for each of the following sequences?
1. GCAAATGA
2. CATGCAAC

(A)
1. 0.0372
2. 0.0872
